test system: primary human hepatic stellate cells (donor 1); test: scaled lipid accumulation score (0 = DMSO-like, 1 = nortriptyline-like); higher = stronger HSC inactivation (lipid re-accumulation), active = hit call of the paper; conditions: library stock concentration: 3.33 mM; 48 h
Counter-ions that a name gives are not always drawn. Among all 5,800 compounds or so, about 620 (11%) showed activity.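 The calls were made as follows: active = score above a cut-off or among the top three wells of a plate; in these data no inactive exceeds 0.85.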 The entries come from a sample that favours actives as a whole.
Outcome codes: yes (1) (active), no (0) (inactive)

>>> assigned_category("O=C(c1cn(Cc2cncn2Cc2ccc(Br)cc2)cc1-c1cccc2ccccc12)N1CCOCC1")
"no (0)"
>>> assigned_category("CCCCCCCCCCCCCCCC(=O)OCC(O)C1OC(=O)C(O)=C1O [L-Ascorbyl 6-palmitate]")
"no (0)"
>>> assigned_category("CCOC(=O)[C@H](CCc1ccccc1)N[C@@H](C)C(=O)N1Cc2cc(OC)c(OC)cc2C[C@H]1C(=O)O [Moexipril HCl]")
"no (0)"
>>> assigned_category("CN1CCN(c2ccc3nc(-c4c(N)c5c(F)cccc5[nH]c4=O)[nH]c3c2)CC1")
"yes (1)"
>>> assigned_category("C=CC(=O)Nc1ccc2ncnc(Nc3cccc(Br)c3)c2c1")
"no (0)"
>>> assigned_category("CC(O)C(=O)O.CC(O)C(=O)O.CN1CCN(c2ccc3nc(-c4c(N)c5c(F)cccc5[nH]c4=O)[nH]c3c2)CC1")
"yes (1)"
>>> assigned_category("CC(=NNC(=S)N1CCC1)c1ccccn1")
"no (0)"
>>> assigned_category("Cc1cnc(-c2cc(N3CCN(C(=O)CCS(C)(=O)=O)CC3)ncc2Cl)c(C)c1")
"no (0)"

Each recorded value in this set is attributed to the supplement of paper PMC9135407.
